List of melting point values.

Illustrative cases are given below, each with its answer.
* C=CCN1CCc2nc(NCC)nc(-c3ccc(Cl)cc3)c2C1 | 104 to 106 °C
* CCCCc1cc2c(cc1/C=C/c1ccc(C(=O)O)cc1)C(C)(C)CCC2(C)C | 192 to 194 °C
* Cc1ccc(-c2nccc3c(CCl)cccc23)cc1 | 120 °C

Task: Record request: melting point value, item Cc1cc(CCCCCOc2c(Cl)cc(C(=O)O)cc2Cl)on1
Output: 67 to 69 °C

Task: Record request: melting point value, item O=C(Nc1ccc2cc(CN3CCCC3)ccc2c1)c1ccc(-c2ccccc2)nc1
Output: 212 to 214 °C

Task: Record request: melting point value, item CCOC(=O)Cc1sc(NC(C)=O)nc1-c1ccc(Cl)cc1
Output: 187 to 188 °C

Task: Record request: melting point value, item CC=CCNc1cc(C(=O)O)cc(S(N)(=O)=O)c1Oc1ccc(NC(C)=O)cc1
Output: 255 to 257 °C

Task: Record request: melting point value, item CCCSc1ccc(C(=O)C(=O)OCC)[nH]1
Output: 34 °C
